Parameter: TGI. Scope: all listed entries.
System: XF 498 CNS
assay-text: NCI tumour cell line growth inhibition, 48 h

compound	TGI
COC(=O)CCC(=O)CC(=O)C(=O)Nc1c(Cl)cc([N+](=O)[O-])cc1Cl	> 100 µM
O=C(CC1(O)C(=O)Nc2c(Cl)cc(Cl)cc21)c1cccc2ccccc12 (configuration not stated)	34.8 µM
Clc1ccc(C2SCc3nc4ccccc4n32)cc1Cl (configuration not stated)	24.4 µM
O=C(NP(=O)(N1CC1)N1CC1)c1cc(I)ccc1I	> 100 µM
O=CC[C@H]1CCc2ccccc2C12CCC(=O)CC2	> 100 µM
Cc1[nH]c(=O)nc(N(CCO)/N=C/c2ccccc2Cl)c1C(=O)Nc1cc(Cl)cc(Cl)c1	> 100 µM
CCc1cccc(C(C)C)c1NC(=O)C(=O)C(CC(=O)Nc1ccc(Cl)c(Cl)c1)C(=O)OC (configuration not stated)	> 100 µM
CNC(=O)N(C)COC	> 100 µM
O=C1C2C3C=CC(C2C(=O)N1COP(=O)(O)O)C1C2C(=O)N(COP(=O)(O)O)C(=O)C2C31 (configuration not stated)	> 100 µM
CCOC(=O)C(=Cc1ccc(Oc2ccccc2)cc1)C(=O)OCC	11.3 µM
O=C(CCC(=O)C(C(=O)c1ccccc1)c1ccccc1)Nc1cccc(C(F)(F)F)c1 (configuration not stated)	> 100 µM
CCCCCCCCCCCC1CCCC(C)N1 (configuration not stated)	95.3 µM

# credit: PubChem BioAssay (NCI)
